Consider the following molecules and their measured pIC50 readings.
- Tested on: HeLa
- protocol-details: Cytotoxicity against human HeLa cells after 72 hrs by MTT assay
- Format: functional, cell-based
Just the number, please; pIC50 means minus log10 of the concentration in mol/L.

Please review the entries below; each comes with its answer.
COc1cccc2c1C(=O)c1c(O)c3c(c(O)c1C2=O)C[C@@](O)(C(=O)CO)C[C@@H]3O[C@H]1C[C@H](N)[C@H](O)[C@H](C)O1    4.85
O=C1c2cccc([N+](=O)[O-])c2NC[C@@]12[C@H](c1ccc(Br)cc1)[C@@H](c1ccccc1)N[C@]21C(=O)Nc2ccc(Cl)cc21    4.68

// moving on: another record for pIC50
Identify measured pIC50 associated with O=C1c2cccc([N+](=O)[O-])c2NC[C@@]12[C@H](c1ccc(Br)cc1)[C@@H](c1ccccc1)N[C@]21C(=O)Nc2ccc(F)cc21
4.59

---

- Test system: HeLa
- protocol-details: Induction of morphological changes in human HeLa cells assessed as rounded cells at IC50 after 24 hrs by phase contrast microscopic analysis
- Type: functional, cell-based
The source made the active and inactive calls. The calls are words filed in the database; no cut-off is given here.
property-label: Activity

O=C1c2cccc([N+](=O)[O-])c2NC[C@@]12[C@H](c1ccc(Br)cc1)[C@@H](c1ccccc1)N[C@]21C(=O)Nc2ccc(Cl)cc21    Active
O=C1c2cccc([N+](=O)[O-])c2NC[C@@]12[C@H](c1ccc(Cl)cc1)[C@@H](c1ccccc1)N[C@]21C(=O)Nc2ccc(Br)cc21    Active
COc1ccc([C@@H]2[C@@H](c3ccccc3)N[C@]3(C(=O)Nc4ccc(Cl)cc43)[C@]23CNc2c(cccc2[N+](=O)[O-])C3=O)cc1    Active
O=C1c2cccc([N+](=O)[O-])c2NC[C@@]12[C@H](c1ccc(Cl)cc1)[C@@H](c1ccccc1)N[C@]21C(=O)Nc2ccc(Cl)cc21    Active

// moving on: another record for Activity
Jot down Activity (HeLa) of COc1ccc([C@@H]2[C@@H](c3ccccc3)N[C@]3(C(=O)Nc4ccc(Br)cc43)[C@]23CNc2c(cccc2[N+](=O)[O-])C3=O)cc1 .
Active

---

- System: HeLa
- protocol-details: Cytotoxicity against human HeLa cells after 72 hrs by MTT assay
- Assay type: functional, cell-based
property-label: Activity

Please review the entries below; each comes with its answer.
O=C1c2cccc([N+](=O)[O-])c2NC[C@@]12[C@H](c1ccc(Cl)cc1)[C@@H](c1ccccc1)N[C@]21C(=O)Nc2ccc(Cl)cc21    Dose-dependent effect
COc1ccc([C@@H]2[C@@H](c3ccccc3)N[C@]3(C(=O)Nc4ccc(Br)cc43)[C@]23CNc2c(cccc2[N+](=O)[O-])C3=O)cc1    Dose-dependent effect
COc1cccc2c1C(=O)c1c(O)c3c(c(O)c1C2=O)C[C@@](O)(C(=O)CO)C[C@@H]3O[C@H]1C[C@H](N)[C@H](O)[C@H](C)O1    Dose-dependent effect
O=C1c2cccc([N+](=O)[O-])c2NC[C@@]12[C@H](c1ccc(F)cc1)[C@@H](c1ccccc1)N[C@]21C(=O)Nc2ccc(F)cc21    Dose-dependent effect
O=C1c2cccc([N+](=O)[O-])c2NC[C@@]12[C@H](c1ccc(Br)cc1)[C@@H](c1ccccc1)N[C@]21C(=O)Nc2ccc(Cl)cc21    Dose-dependent effect

Identify measured Activity associated with O=C1c2cccc([N+](=O)[O-])c2NC[C@@]12[C@H](c1ccc(Br)cc1)[C@@H](c1ccccc1)N[C@]21C(=O)Nc2ccc(F)cc21
Dose-dependent effect

---

- Tested on: HeLa
- protocol-details: Cytotoxicity against human HeLa cells after 72 hrs by MTT assay
- Format: functional, cell-based
property-label: IC50 (µM)
Report as a plain number; the unit µM is understood.

Please review the entries below; each comes with its answer.
O=C1c2cccc([N+](=O)[O-])c2NC[C@@]12[C@H](c1ccc(Br)cc1)[C@@H](c1ccccc1)N[C@]21C(=O)Nc2ccc(Br)cc21    25
O=C1c2cccc([N+](=O)[O-])c2NC[C@@]12[C@H](c1ccc(F)cc1)[C@@H](c1ccccc1)N[C@]21C(=O)Nc2ccc(Cl)cc21    27

Identify measured IC50 associated with O=C1c2cccc([N+](=O)[O-])c2NC[C@@]12[C@H](c1ccc(F)cc1)[C@@H](c1ccccc1)N[C@]21C(=O)Nc2ccc(F)cc21
20

Identify measured IC50 associated with COc1ccc([C@@H]2[C@@H](c3ccccc3)N[C@]3(C(=O)Nc4ccc(Cl)cc43)[C@]23CNc2c(cccc2[N+](=O)[O-])C3=O)cc1
16

---

- Tested on: HeLa
- protocol-details: Cytotoxicity against human HeLa cells after 72 hrs by MTT assay
- Format: functional, cell-based
Consider the following molecules and their measured IC50 readings.
The answer consists of two parts: a number and, after it, its unit.

Please review the entries below; each comes with its answer.
O=C1c2cccc([N+](=O)[O-])c2NC[C@@]12[C@H](c1ccc(Cl)cc1)[C@@H](c1ccccc1)N[C@]21C(=O)Nc2ccc(Cl)cc21    18 µM
O=C1c2cccc([N+](=O)[O-])c2NC[C@@]12[C@H](c1ccc(F)cc1)[C@@H](c1ccccc1)N[C@]21C(=O)Nc2ccc(Br)cc21    26 µM
O=C1c2cccc([N+](=O)[O-])c2NC[C@@]12[C@H](c1ccc(Cl)cc1)[C@@H](c1ccccc1)N[C@]21C(=O)Nc2ccc(F)cc21    25 µM
COc1ccc([C@@H]2[C@@H](c3ccccc3)N[C@]3(C(=O)Nc4ccc(F)cc43)[C@]23CNc2c(cccc2[N+](=O)[O-])C3=O)cc1    24 µM
COc1ccc([C@@H]2[C@@H](c3ccccc3)N[C@]3(C(=O)Nc4ccc(Br)cc43)[C@]23CNc2c(cccc2[N+](=O)[O-])C3=O)cc1    19 µM

// moving on: another record for IC50
Identify measured IC50 associated with O=C1c2cccc([N+](=O)[O-])c2NC[C@@]12[C@H](c1ccc(Cl)cc1)[C@@H](c1ccccc1)N[C@]21C(=O)Nc2ccc(Br)cc21
23 µM
